Provenance of the data: ChEMBL document CHEMBL4385657

# system: Pyrroline-5-carboxylate reductase 1, mitochondrial (Homo sapiens, UniProt P32322)
measure name: pIC50
Interpret pIC50 as the negative base-10 log of the concentration measured in mol/L.

IN: Look up and report measured pIC50 for this entry: C#CCN(C)Cc1ccc(Br)cc1C
OUT: 4.42

IN: Look up and report measured pIC50 for this entry: C#CCN(C)Cc1cccc(Cl)c1
OUT: 4.28

IN: Look up and report measured pIC50 for this entry: C#CCN(C)Cc1ccc(Br)cc1OC
OUT: 4.68

IN: Look up and report measured pIC50 for this entry: CN(CC#Cc1ccccc1)Cc1ccc(Br)cc1
OUT: 4.15

IN: Look up and report measured pIC50 for this entry: C#CCN(C)Cc1ccc(Br)cc1F
OUT: 4.38

IN: Look up and report measured pIC50 for this entry: C#CCN(C)Cc1ccc(I)cc1
OUT: 5.01

IN: Look up and report measured pIC50 for this entry: C#CCN(C)Cc1ccc(Cl)cc1Cl
OUT: 5.04

IN: Look up and report measured pIC50 for this entry: C#CCNCc1ccc(Br)cc1
OUT: 4.00

---

# system: UniProt P32322
measure name: pIC50
Interpret pIC50 as the negative base-10 log of the concentration measured in mol/L.

IN: Look up and report measured pIC50 for this entry: C#CCN(C)Cc1ccccc1 [PARGYLINE]
OUT: 3.70

IN: Look up and report measured pIC50 for this entry: C#CCN(C)Cc1ccc(C)cc1
OUT: 4.40

IN: Look up and report measured pIC50 for this entry: C#CCN(C)Cc1ccc(C(C)C)cc1
OUT: 3.85

IN: Look up and report measured pIC50 for this entry: C#CCN(C)Cc1ccccc1Cl
OUT: 3.86

IN: Look up and report measured pIC50 for this entry: C#CCN(Cc1ccc(Br)cc1)Cc1ccc(Br)cc1
OUT: 4.04

---

Target protein (sequence): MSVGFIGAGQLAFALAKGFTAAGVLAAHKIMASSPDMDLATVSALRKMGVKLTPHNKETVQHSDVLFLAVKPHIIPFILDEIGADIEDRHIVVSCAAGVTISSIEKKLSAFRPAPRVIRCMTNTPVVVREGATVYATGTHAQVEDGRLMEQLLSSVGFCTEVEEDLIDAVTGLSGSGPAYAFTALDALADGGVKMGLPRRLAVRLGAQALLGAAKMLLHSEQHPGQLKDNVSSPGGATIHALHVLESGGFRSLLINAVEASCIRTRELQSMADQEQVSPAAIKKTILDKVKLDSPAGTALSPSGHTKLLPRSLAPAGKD
Kindly state pIC50 for each of the entries shown.
Interpret pIC50 as the negative base-10 log of the concentration measured in mol/L.

IN: Look up and report measured pIC50 for this entry: C#CCN(C)Cc1ccc(OC)cc1
OUT: 4.42

IN: Look up and report measured pIC50 for this entry: CC#CCN(C)Cc1ccc(Br)cc1
OUT: 4.80

IN: Look up and report measured pIC50 for this entry: CCCN(C)Cc1ccc(Br)cc1
OUT: 3.47

IN: Look up and report measured pIC50 for this entry: C#CCN(C)Cc1cccc([N+](=O)[O-])c1
OUT: 3.40

IN: Look up and report measured pIC50 for this entry: C#CCN(C)Cc1ccc(C(F)(F)F)cc1
OUT: 4.19

IN: Look up and report measured pIC50 for this entry: C#CCN(C)C(C)c1ccc(Br)cc1 (centres undefined)
OUT: 3.50
